The origin of these recorded values is patent US10793564B2.

target-or-test-system: recombinant human integrin αVβ6 (Homo sapiens (Human), UniProt P06756+P18564)
Sequence (P06756 31-992): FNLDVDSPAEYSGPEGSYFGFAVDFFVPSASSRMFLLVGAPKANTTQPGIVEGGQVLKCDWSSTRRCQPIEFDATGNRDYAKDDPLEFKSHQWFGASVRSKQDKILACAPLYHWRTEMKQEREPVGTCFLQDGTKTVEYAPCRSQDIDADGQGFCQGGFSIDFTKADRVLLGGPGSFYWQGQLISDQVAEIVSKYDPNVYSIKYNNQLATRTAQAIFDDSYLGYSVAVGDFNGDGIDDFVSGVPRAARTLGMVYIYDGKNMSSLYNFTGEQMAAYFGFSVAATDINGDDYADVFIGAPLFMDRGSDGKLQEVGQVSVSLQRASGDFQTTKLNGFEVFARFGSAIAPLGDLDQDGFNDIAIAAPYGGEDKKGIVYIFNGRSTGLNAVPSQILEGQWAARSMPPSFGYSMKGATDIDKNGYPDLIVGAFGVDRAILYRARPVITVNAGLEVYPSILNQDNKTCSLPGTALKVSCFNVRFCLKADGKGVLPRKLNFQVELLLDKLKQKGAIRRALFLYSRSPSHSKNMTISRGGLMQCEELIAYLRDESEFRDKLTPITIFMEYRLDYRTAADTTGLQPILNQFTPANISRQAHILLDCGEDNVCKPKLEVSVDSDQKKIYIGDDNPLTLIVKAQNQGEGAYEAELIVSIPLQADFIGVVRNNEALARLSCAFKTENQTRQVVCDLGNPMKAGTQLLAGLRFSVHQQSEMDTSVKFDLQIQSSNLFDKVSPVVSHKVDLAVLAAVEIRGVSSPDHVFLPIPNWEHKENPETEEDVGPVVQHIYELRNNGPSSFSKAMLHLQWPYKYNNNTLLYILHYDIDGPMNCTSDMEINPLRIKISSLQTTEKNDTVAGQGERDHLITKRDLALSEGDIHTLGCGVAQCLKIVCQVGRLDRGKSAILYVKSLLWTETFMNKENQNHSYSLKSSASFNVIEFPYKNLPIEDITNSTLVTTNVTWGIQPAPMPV
Sequence (P18564 22-707): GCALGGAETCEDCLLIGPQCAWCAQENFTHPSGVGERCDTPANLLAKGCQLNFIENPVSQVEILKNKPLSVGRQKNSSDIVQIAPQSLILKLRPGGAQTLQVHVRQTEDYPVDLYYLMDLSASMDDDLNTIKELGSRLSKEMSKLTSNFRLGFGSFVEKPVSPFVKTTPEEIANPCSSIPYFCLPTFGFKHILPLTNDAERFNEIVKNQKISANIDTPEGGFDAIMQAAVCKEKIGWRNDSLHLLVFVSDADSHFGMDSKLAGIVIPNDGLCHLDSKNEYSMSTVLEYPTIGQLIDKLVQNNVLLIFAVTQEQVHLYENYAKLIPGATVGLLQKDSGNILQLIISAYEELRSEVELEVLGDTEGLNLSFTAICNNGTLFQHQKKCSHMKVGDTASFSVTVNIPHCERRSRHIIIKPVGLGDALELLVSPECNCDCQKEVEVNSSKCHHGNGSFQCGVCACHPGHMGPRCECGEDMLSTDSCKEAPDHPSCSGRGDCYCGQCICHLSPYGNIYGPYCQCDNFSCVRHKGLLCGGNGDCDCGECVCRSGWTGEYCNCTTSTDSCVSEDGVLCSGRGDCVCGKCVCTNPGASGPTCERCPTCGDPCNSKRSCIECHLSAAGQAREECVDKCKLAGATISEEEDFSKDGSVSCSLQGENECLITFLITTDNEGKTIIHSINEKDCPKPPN
test-method-notes: Solid phase integrin αVβ6 binding assay
condition-set: inhibition of recombinant TGFβ1 LAP binding to coated integrin, IC50 presented in four ranges, read-out: αvβ6 Inhibition IC50 (nM) - range
Experimental: Microplates were coated with recombinant human integrin αVβ6 (2 μg/mL) in PBS (100 μL/well 25° C., overnight). The coating solution was removed, washed with wash buffer (0.05% Tween 20; 0.5 mM MnCl2; in 1×TBS). The plate was blocked with 200 μL/well of Block Buffer (1% BSA; 5% sucrose; 0.5 mM MnCl2; in 1×TBS) at 37° C. for 2 h. […] Bound antibody was detected by peroxidase-conjugated streptavidin. The IC50 values for testing compounds were calculated by a four-parameter logistic regression. […]
value-kind: IC50

COC[C@@H](F)CN(CCCCc1ccc2c(n1)NCCC2)CC[C@H](Nc1cc(-c2ccccc2)ncn1)C(=O)O = > 1000 nM
COCCN(CCCCc1ccc2c(n1)NCCC2)CC[C@H](Nc1nc(C(F)(F)F)nc2ccccc12)C(=O)O = < 50 nM
O=C(O)[C@H](CCN(CCCCc1ccc2c(n1)NCCC2)C1CC1)Nc1ncc(C(F)(F)F)cn1 = < 50 nM
CO[C@H](C)CN(CCCCc1ccc2c(n1)NCCC2)CC[C@H](Nc1ncnc2c1cnn2C)C(=O)O = < 50 nM

###

target-or-test-system: recombinant human integrin αVβ6 (Homo sapiens (Human), UniProt P06756+P18564)
test-method-notes: Solid phase integrin αVβ6 binding assay
condition-set: inhibition of recombinant TGFβ1 LAP binding to coated integrin, IC50 presented in four ranges, read-out: αvβ6 Inhibition IC50 (nM) - range
value-kind: IC50

O=C(O)[C@H](CCN(CCCCc1ccc2c(n1)NCCC2)CC(F)F)Nc1ncc(F)cn1 = > 1000 nM
CO[C@H](C)CN(CCCCc1ccc2c(n1)NCCC2)CC[C@H](Nc1nccnc1C#N)C(=O)O = < 50 nM
O=C(O)[C@H](CCN(CCCCc1ccc2c(n1)NCCC2)CCOc1ccccc1)Nc1ncc(C2CC2)cn1 = < 50 nM
COC[C@@H](F)CN(CCCCc1ccc2c(n1)NCCC2)CC[C@H](Nc1nc(C)nc2ccccc12)C(=O)O = < 50 nM
CO[C@H](C)CN(CCCCc1ccc2c(n1)NCCC2)CC[C@H](Nc1nc(-c2cccnc2)nc2ccccc12)C(=O)O = < 50 nM
COC[C@@H](F)CN(CCCCc1ccc2c(n1)NCCC2)CC[C@H](Nc1ccnc(C(F)(F)F)n1)C(=O)O = 250 to 1000 nM
O=C(O)[C@H](CCN(CCCCc1ccc2c(n1)NCCC2)CC(CO)CO)Nc1ncnc2ccccc12 = < 50 nM

###

target-or-test-system: recombinant human integrin αVβ6 (Homo sapiens (Human), UniProt P06756+P18564)
test-method-notes: Solid phase integrin αVβ6 binding assay
condition-set: inhibition of recombinant TGFβ1 LAP binding to coated integrin, IC50 presented in four ranges, read-out: αvβ6 Inhibition IC50 (nM) - range
value-kind: IC50

O=C(O)[C@H](CCN(CCCCc1ccc2c(n1)NCCC2)CCOc1ccccc1)Nc1ncnc2ccccc12 [Compound 28] = < 50 nM
CO[C@H](C)CN(CCCCc1ccc2c(n1)NCCC2)CC[C@H](Nc1ncnc2[nH]ncc12)C(=O)O [Compound 71] = < 50 nM
O=C(O)[C@H](CCN(CCCCc1ccc2c(n1)NCCC2)CCOc1ccccc1)Nc1cc(-c2ccccc2)ncn1 [Compound 93] = < 50 nM
CS(=O)(=O)CCN(CCCCc1ccc2c(n1)NCCC2)CC[C@H](Nc1ccnc(C(F)(F)F)n1)C(=O)O [Compound 104] = > 1000 nM
CO[C@H](C)CN(CCCCc1ccc2c(n1)NCCC2)CC[C@H](Nc1nc(C)nc2cc(F)ccc12)C(=O)O [Compound 65] = < 50 nM
COCCN(CCCCc1ccc2c(n1)NCCC2)CC[C@H](Nc1ccnc(C(F)(F)F)n1)C(=O)O [Compound 24] = < 50 nM
COC[C@@H](F)CN(CCCCc1ccc2c(n1)NCCC2)CC[C@H](Nc1nc(C)nc2cc(F)ccc12)C(=O)O [Compound 32] = < 50 nM
O=C(O)[C@H](CCN(CCCCc1ccc2c(n1)NCCC2)CCC(F)F)Nc1ccnc(C(F)(F)F)n1 [Compound 134] = 50 to 250 nM
CC(=O)NCCN(CCCCc1ccc2c(n1)NCCC2)CC[C@H](Nc1ncnc2ccccc12)C(=O)O [Compound 63] = < 50 nM
Cc1nc(N[C@@H](CCN(CCCCc2ccc3c(n2)NCCC3)CCOc2cccnc2C)C(=O)O)c2ccc(F)cc2n1 [Compound 53] = < 50 nM
O=C(O)[C@H](CCN(CCCCc1ccc2c(n1)NCCC2)C1CC1)Nc1cc(C(F)F)ncn1 [Compound 1] = 250 to 1000 nM
CN(C)C(=O)CN(CCCCc1ccc2c(n1)NCCC2)CC[C@H](Nc1ncc(C(F)(F)F)cn1)C(=O)O [Compound 141] = 50 to 250 nM
O=C(O)[C@H](CCN(CCCCc1ccc2c(n1)NCCC2)CCOCC(F)F)Nc1ncnc2ccccc12 [Compound 50] = < 50 nM
O=C(O)[C@H](CCN(CCO)CCCCc1ccc2c(n1)NCCC2)Nc1ncnc2ccccc12 [Compound 75] = < 50 nM
CO[C@H](C)CN(CCCCc1ccc2c(n1)NCCC2)CC[C@H](Nc1ncc(Br)cn1)C(=O)O [Compound 70] = < 50 nM

###

target-or-test-system: recombinant human integrin αVβ6 (Homo sapiens (Human), UniProt P06756+P18564)
test-method-notes: Solid phase integrin αVβ6 binding assay
condition-set: inhibition of recombinant TGFβ1 LAP binding to coated integrin, IC50 presented in four ranges, read-out: αvβ6 Inhibition IC50 (nM) - range
Description: Microplates were coated with recombinant human integrin αVβ6 (2 μg/mL) in PBS (100 μL/well 25° C., overnight). The coating solution was removed, washed with wash buffer (0.05% Tween 20; 0.5 mM MnCl2; in 1×TBS). The plate was blocked with 200 μL/well of Block Buffer (1% BSA; 5% sucrose; 0.5 mM MnCl2; in 1×TBS) at 37° C. for 2 h. […] Bound antibody was detected by peroxidase-conjugated streptavidin. The IC50 values for testing compounds were calculated by a four-parameter logistic regression. […]
# IC50 annotations
value-kind: IC50

O=C(O)[C@H](CCN(CCCCc1ccc2c(n1)NCCC2)CC1CCO1)Nc1ncnc2ccccc12 (stereo partly shown) = < 50 nM
O=C(O)[C@H](CCN(CCCF)CCCCc1ccc2c(n1)NCCC2)Nc1ncnc2ccccc12 = < 50 nM
CO[C@H](C)CN(CCCCc1ccc2c(n1)NCCC2)CC[C@H](Nc1cc(-c2ccccc2)ncn1)C(=O)O = < 50 nM
O=C(O)[C@H](CCN(CCCCc1ccc2c(n1)NCCC2)CC(F)F)Nc1ncncc1-c1ccccc1 = > 1000 nM
O=C(O)[C@H](CCN(CCCCc1ccc2c(n1)NCCC2)CC(F)F)Nc1nc(-c2cccnc2)nc2ccccc12 = 250 to 1000 nM
CS(=O)(=O)CCN(CCCCc1ccc2c(n1)NCCC2)CC[C@H](Nc1ncnc2ccccc12)C(=O)O = < 50 nM
N#Cc1cnc(N[C@@H](CCN(CCCCc2ccc3c(n2)NCCC3)CC(F)F)C(=O)O)nc1 = > 1000 nM

###

target-or-test-system: recombinant human integrin αVβ6 (Homo sapiens (Human), UniProt P06756+P18564)
test-method-notes: Solid phase integrin αVβ6 binding assay
condition-set: inhibition of recombinant TGFβ1 LAP binding to coated integrin, IC50 presented in four ranges, read-out: αvβ6 Inhibition IC50 (nM) - range
# IC50 annotations
value-kind: IC50

COCCN(CCCCc1ccc2c(n1)NCCC2)CC[C@H](Nc1nccnc1C#N)C(=O)O [Compound 67] = < 50 nM
Cc1nc(N[C@@H](CCN(CCCCc2ccc3c(n2)NCCC3)CCOc2ccc(F)cc2)C(=O)O)c2ccc(F)cc2n1 [Compound 40] = < 50 nM
CO[C@H](C)CN(CCCCc1ccc2c(n1)NCCC2)CC[C@H](Nc1cc(-n2cccn2)ncn1)C(=O)O [Compound 77] = < 50 nM
O=C(O)[C@H](CCN(CCCCc1ccc2c(n1)NCCC2)CC(F)F)Nc1ncc(C2CC2)cn1 [Compound 146] = > 1000 nM
Cc1ccc(OCCN(CCCCc2ccc3c(n2)NCCC3)CC[C@H](Nc2ncnc3ccccc23)C(=O)O)cn1 [Compound 59] = < 50 nM
O=C(O)[C@H](CCN(CCCCc1ccc2c(n1)NCCC2)CCOc1ccc(F)cc1)Nc1ncnc2[nH]ncc12 [Compound 143] = 50 to 250 nM
Cc1cc(N[C@@H](CCN(CCCCc2ccc3c(n2)NCCC3)CC(F)F)C(=O)O)nc(-c2ccncc2)n1 [Compound 122] = 250 to 1000 nM
CO[C@H](C)CN(CCCCc1ccc2c(n1)NCCC2)CC[C@H](Nc1ncc(F)cn1)C(=O)O [Compound 78] = < 50 nM
CO[C@H](C)CN(CCCCc1ccc2c(n1)NCCC2)CC[C@H](Nc1ncc(C2CC2)cn1)C(=O)O [Compound 124] = < 50 nM
COC[C@@H](F)CN(CCCCc1ccc2c(n1)NCCC2)CC[C@H](Nc1cc(-n2cccn2)ncn1)C(=O)O [Compound 108] = > 1000 nM
O=C(O)[C@H](CCN(CCCCc1ccc2c(n1)NCCC2)CCOc1ccc(F)cc1)Nc1ncc(C(F)(F)F)cn1 [Compound 139] = < 50 nM
Cc1ccc(OCCN(CCCCc2ccc3c(n2)NCCC3)CC[C@H](Nc2nc(C)nc3cc(F)ccc23)C(=O)O)cn1 [Compound 56] = < 50 nM
CS(=O)(=O)CCN(CCCCc1ccc2c(n1)NCCC2)CC[C@H](Nc1nc(-c2cccnc2)nc2ccccc12)C(=O)O [Compound 107] = 250 to 1000 nM
